biological target: Chymotrypsinogen A (Bos taurus) (UniProt P00766); assay: The second order inactivation rate constant was expressed as inhibition of chymotrypsin (ChT).Inhibitor concentrations were 360-570 uM
Below: a set of entries, each annotated with reported k obs / 1.
Quick note: give the figure in M⁻¹ s⁻¹, leave out the unit.

The cases that follow already have their k obs / 1 on record.
> print(dat)
                                   compound  endpoint.result
1  COc1oc(=O)c2cc(NC(=O)[C@H](Cc3ccccc3)NC(=O)c3ccc([N+](=O)[O-])cc3)ccc2c1Cl               30
2  COc1oc(=O)c2cc(NC(=O)[C@H](Cc3ccccc3)NC(=O)c3ccc(C)cc3)ccc2c1Cl              130

Please give measured k obs / 1 of the following entry: "COc1oc(=O)c2cc(NC(=O)[C@H](Cc3ccccc3)NC(=O)c3cccc(C)c3)ccc2c1Cl"
64

Please give measured k obs / 1 of the following entry: "COc1oc(=O)c2cc(NC(=O)[C@H](Cc3ccccc3)NC(=O)c3ccccc3)ccc2c1Cl"
55

Please give measured k obs / 1 of the following entry: "COc1oc(=O)c2cc(NC(=O)[C@H](Cc3c[nH]c4ccccc34)NC(=O)OC(C)(C)C)ccc2c1Cl"
33

Please give measured k obs / 1 of the following entry: COc1oc(=O)c2cc(NC(=O)C(Cc3ccccc3)NC(=O)c3ccc(NC(=O)Nc4ccccc4)cc3)ccc2c1Cl (configuration not stated)
10

Please give measured k obs / 1 of the following entry: COc1oc(=O)c2cc(NC(=O)C(Cc3ccccc3)NC(=O)c3cccc(NC(=O)Nc4ccccc4)c3)ccc2c1Cl (configuration not stated)
110
